Target: M5 muscarinic receptor (Homo sapiens, UniProt P08912)
Sequence (P08912 whole entry): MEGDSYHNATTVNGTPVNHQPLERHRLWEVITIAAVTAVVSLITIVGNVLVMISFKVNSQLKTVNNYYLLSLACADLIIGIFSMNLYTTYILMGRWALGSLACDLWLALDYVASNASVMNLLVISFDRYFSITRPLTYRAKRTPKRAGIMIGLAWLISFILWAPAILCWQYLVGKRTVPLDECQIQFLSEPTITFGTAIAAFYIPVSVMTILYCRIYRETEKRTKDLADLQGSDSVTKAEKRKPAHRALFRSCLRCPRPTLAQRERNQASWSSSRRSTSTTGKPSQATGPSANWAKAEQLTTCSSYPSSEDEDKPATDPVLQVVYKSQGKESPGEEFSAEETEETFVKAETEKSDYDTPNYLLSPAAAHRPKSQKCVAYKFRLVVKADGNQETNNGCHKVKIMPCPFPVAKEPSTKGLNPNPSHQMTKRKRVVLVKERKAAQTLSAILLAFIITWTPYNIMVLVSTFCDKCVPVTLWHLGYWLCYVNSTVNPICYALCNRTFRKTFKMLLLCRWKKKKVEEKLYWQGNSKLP
Assay: accumulation of IPX, M5 CHO cells transfected with G15 (M5Gq+G15)
Assay type: cell-based
Design: expressed in transfected cells; host or cells: CHO cells
Conditions: Table 8
For each record, write down the corresponding τ.
One number for each entry.

C1=CCN(Cc2cccs2)CC1.Cl ... 0.009
C[N+]1(Cc2cccs2)CC=CCC1.[I-] (stereo not shown) ... 0.014
C[N+](C)(C)CCOC(N)=O [carbachol, reference compound] ... 4.0

Let us move to another entry and its τ.
Enquiry: Given the molecule O=C1CCCN1CC#CCN1CCCC1 [oxotremorine, reference compound] , what is its reported τ?
Return: 2.6
